Biological target: T1, human GIP receptor (human, UniProt P48546 22-466)
T1 sequence (looked up): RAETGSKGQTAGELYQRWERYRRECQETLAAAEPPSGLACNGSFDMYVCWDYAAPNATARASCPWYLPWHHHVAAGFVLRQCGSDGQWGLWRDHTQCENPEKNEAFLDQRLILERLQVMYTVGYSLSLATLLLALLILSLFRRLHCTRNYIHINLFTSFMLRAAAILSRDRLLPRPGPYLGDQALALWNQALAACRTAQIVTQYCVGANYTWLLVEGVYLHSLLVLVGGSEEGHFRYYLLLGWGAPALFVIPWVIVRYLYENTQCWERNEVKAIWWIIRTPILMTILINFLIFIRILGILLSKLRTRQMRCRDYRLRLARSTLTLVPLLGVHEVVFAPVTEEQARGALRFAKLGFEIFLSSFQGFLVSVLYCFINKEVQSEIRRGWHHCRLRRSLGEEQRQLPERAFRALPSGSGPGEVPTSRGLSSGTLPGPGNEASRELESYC
Experiment: cell-based or functional assay
Starred links: 1 amine or outer side, 2 acyl side, 3 side chain; linkers in the order of their positions; H or OH if unused. Non-standard residues stand in square brackets, D forms with d. Groups on a side chain read outwards from the residue. No end group written: not given here. *: point of attachment. C18 diacid = O=C(O)CCCCCCCCCCCCCCCCC(=O)*; C16 diacid = O=C(O)CCCCCCCCCCCCCCC(=O)*; γGlu = O=C(O)[C@H](CCC(=O)[*:2])N[*:1]; Glutaryl = O=C(CCCC(=O)[*:2])[*:1]; Nle = CCCC[C@H](N)C(=O)O; AEEA = NCCOCCOCC(=O)O; Aib = CC(C)(N)C(=O)O
measurement.type: cAMP antagonism % inhib (CisBio assay) (%)
Answers are plain numbers, in %.

Study these solved cases before continuing.
Glutaryl-GTFISDYSIA[Nle]DKIK(C16 diacid)QQDFVEWLLAQKPSSGAPPPS-OH [AT700]
89
EGTFISDYSI[Aib][Nle]DKIK(C16 diacid)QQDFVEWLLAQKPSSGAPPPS-OH [AT667]
86

Here's the next entry for you.
[in] Looking for the measured cAMP antagonism % inhib (CisBio assay) of EGTFISDYSIA[Nle]DKIK([AEEA-AEEA-γGlu-C18 diacid])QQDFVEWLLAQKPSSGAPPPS-OH [AT683] , can you help?
[out] 93
